- System: A549
- Assay comment: NCI tumour cell line growth inhibition, 48 h
Activity calls are given as the source filed them. Rule as the data show it: active = GI50 up to about 1.1 µM and inactive = higher.
Entry note: the call must match one of YES (active), NO (inactive)

These recorded examples may help you get a feel for the data.
| Compound | Cat |
| --- | --- |
| CC(=O)CC(=O)Nc1ccc2ccccc2c1 | NO |
| O=c1c2ccccc2sc2c(CO)ccc(NCCN3CCCCC3)c12 | NO |
| Oc1ncc(N(CCCl)CCCl)c(O)n1 [URACIL MUSTARD] | NO |
| CC(=O)NC1CC(C(C)(C)NC(C)=O)CC=C1C (configuration not stated) | NO |

[in] Please state the recorded outcome for this compound: O=S(=O)(Cc1cnc(O)nc1O)Cc1cnc(O)nc1O
[out] NO

[in] Please state the recorded outcome for this compound: C=CCNC(=O)ON1C(=O)CCC1=O
[out] NO

[in] Please state the recorded outcome for this compound: CCCCCCCCCCCCCCCC(=O)OC1C(O)C(O)C(O)C(O)C12CO2 (configuration not stated)
[out] NO

[in] Please state the recorded outcome for this compound: COc1cc(C2SCCCCCCCCCCSC(c3ccc(O)c(OC)c3)SCCCCCCCCCCS2)ccc1O (configuration not stated)
[out] NO

[in] Please state the recorded outcome for this compound: CC12Nc3ccccc3N1C(=O)c1ccccc12 (configuration not stated)
[out] NO

[in] Please state the recorded outcome for this compound: CCOc1cc(NC(C)=O)ccc1C(=O)NN1C(=O)/C(=C/c2ccc(Cl)cc2)N=C1c1ccccc1
[out] NO

[in] Please state the recorded outcome for this compound: CC(C)c1ccc(C2NC(S)=NC3=C2c2ccccc2C3=O)cc1 (configuration not stated)
[out] NO

[in] Please state the recorded outcome for this compound: CCOC(=O)CN1C(=O)c2cc([N+](=O)[O-])cc3cc([N+](=O)[O-])cc(c23)C1=O
[out] NO

[in] Please state the recorded outcome for this compound: COC(=O)c1ccc(NCc2c(O)ccc(O)c2Br)cc1Cl
[out] NO

[in] Please state the recorded outcome for this compound: COc1cccc2c1CCc1cc3c(N)nc(N)nc3nc1-2
[out] NO

[in] Please state the recorded outcome for this compound: Cc1ccc(C2=C(c3ccc(C)cc3)C(c3ccc(C)cc3)=C(c3ccc(C)cc3)C2=O)cc1
[out] NO

[in] Please state the recorded outcome for this compound: CC(C)NC(=O)OCc1c(COC(=O)NC(C)C)n(C)c2c1ccc1ccccc12
[out] NO

[in] Please state the recorded outcome for this compound: CCOc1cc2c(cc1O)C(O)C[C@@H]1[C@@H]2CC[C@]2(C)[C@@H](O)CC[C@@H]12 (some centres not stated)
[out] YES

[in] Please state the recorded outcome for this compound: O=S(=O)(O)C(c1ccccc1)C(O)c1ccccc1 (configuration not stated)
[out] NO

[in] Please state the recorded outcome for this compound: CCCCCCNC(=O)CCC(NC(=O)c1ccc(N(C)Cc2cnc3nc(N)nc(N)c3n2)cc1)C(=O)NCCCCCC (configuration not stated)
[out] NO

[in] Please state the recorded outcome for this compound: COc1ccc(OC)c(NC(=O)C(=O)CC(=O)c2sc(-n3nc(-c4ccccc4)cc3-c3ccccc3)nc2C)c1
[out] NO

[in] Please state the recorded outcome for this compound: Cc1cc(NC[C@H](O)[C@H](O)[C@H](O)CO)c(Sc2cc(=O)[nH]c(=O)[nH]2)cc1C
[out] NO

[in] Please state the recorded outcome for this compound: CC1(C)OB(O)OC1(C)C
[out] NO

* * *

- System: SF-295
- Assay comment: NCI tumour cell line growth inhibition, 48 h
Active and inactive are the calls of the source. Cut-off read from the data, not from the text of the source: active = GI50 up to about 1.1 µM and inactive = higher.
Measurement label: GI50

Example cases with answers are listed next.
| Compound | Measurement label | Reported |
| --- | --- | --- |
| C[N+](C)(C)C(Cc1c[nH]c(=S)[nH]1)C(=O)O (stereo not given) | GI50 | > 100 µM (inactive) |
| CCOc1ccccc1NC(=O)C(=O)CC(=O)c1sc(Nc2nnc(-c3ccc(Cl)c(Cl)c3)o2)nc1C | GI50 | > 100 µM (inactive) |
| COc1ccc(C(Nc2ccccn2)c2cc(C(C)(C)C)cc(C(C)(C)C)c2O)cc1 (stereo not given) | GI50 | 12.4 µM (inactive) |

Lab note: CNC(=O)C(C)NC(=O)C(Cc1ccccc1)NC(=O)OC(C)(C)C (stereo not given) gave GI50 of > 100 µM (inactive)

Lab note: COc1ccc(/C(=N/OCCCC(=O)O)c2cccs2)cc1 gave GI50 of > 100 µM (inactive)

Lab note: C=CCNC(=O)ON1C(=O)CCC1=O gave GI50 of > 100 µM (inactive)

Lab note: COC1OC(Cc2nnc(C)o2)C(OCc2ccccc2)C(OCc2ccccc2)C1OCc1ccccc1 (stereo not given) gave GI50 of 18.9 µM (inactive)

Lab note: COS(=O)c1cc(Cl)cc(Cl)c1OC(=O)CSSCC(=O)Oc1c(Cl)cc(Cl)cc1S(=O)OC (stereo not given) gave GI50 of 19.5 µM (inactive)

Lab note: N/C(=N\O)N/N=C\c1c2ccccc2c(Cl)c2ccccc12 gave GI50 of 2.75 µM (inactive)

Lab note: CC(C)CCCC(C)[C@H]1CC[C@H]2N/C(=N/Cc3ccccc3)CCC[C@]12C (stereo not given in full) gave GI50 of 2.03 µM (inactive)

* * *

- Test system: SW-620
- Assay comment: NCI tumour cell line growth inhibition, 48 h
Active and inactive are the calls of the source. No stated cut-off is given here; in the data, active = GI50 up to about 1.1 µM and inactive = higher.
Measurement label: GI50

Example cases with answers are listed next.
| Line notation | Target under test | GI50 |
| --- | --- | --- |
| C[C@@]1(OC(=O)c2cc([N+](=O)[O-])cc([N+](=O)[O-])c2)C[C@@H]2CCCC[C@@H]21 | SW-620 | > 100 µM (inactive) |
| O=c1[nH]c2ccc(CC(=S)N3CCOCC3)cc2s1 | SW-620 | > 100 µM (inactive) |

Okay, now this molecule:
Lab note: N#C/C(=C\c1ccc2[nH]ccc2c1)C(=O)NCCCCNC(=O)/C(C#N)=C/c1ccc2[nH]ccc2c1 gave GI50 of > 31.6 µM (inactive)

* * *

- System: OVCAR-3
- Assay comment: NCI tumour cell line growth inhibition, 48 h
Activity calls are given as the source filed them. No stated cut-off is given here; in the data, active = GI50 up to about 1.1 µM and inactive = higher.
Reported GI50 values for a set of compounds

Lab note: COc1ccc2c(c1)CC[C@@H]1[C@@H]2CC[C@]2(C)C(=O)/C(=C/c3ccncc3)C[C@@H]12 gave GI50 of 17.8 µM (inactive)

Lab note: NC1=NCC(CN2CCCC2)O1 (stereo not given) gave GI50 of > 100 µM (inactive)

Lab note: CC(=O)CC(=O)Nc1ccc2ccccc2c1 gave GI50 of 34.6 µM (inactive)

Lab note: CCOC(=O)c1cn2c(n1)sc1cccc(C)c12 gave GI50 of > 100 µM (inactive)

Lab note: Cn1c(=O)c2sc3c4sc5c(=O)n(C)c6ccccc6c5c4sc3c2c2ccccc21 gave GI50 of > 100 µM (inactive)

Lab note: O=C(c1ccc(Cl)cc1)N1N=C(c2ccc(Cl)cc2)CC1(O)c1cc(F)c(Cl)cc1Cl (stereo not given) gave GI50 of 21.8 µM (inactive)

Lab note: Cc1cccc2c(N)c3cccc(C(=O)NCC[N+](C)(C)Cc4ccc([N+](=O)[O-])n4C)c3nc12 gave GI50 of 24.7 µM (inactive)

Lab note: CC(=O)Nc1ccc(-c2nnc(SCC(=O)Nc3ccc([N+](=O)[O-])cc3)o2)cc1 gave GI50 of 14.5 µM (inactive)

Lab note: COc1cccc(CCN2CCN(CCCc3ccccc3)CC2)c1 gave GI50 of 64.6 µM (inactive)

Lab note: Cc1cc(CN(Cc2ccccc2)Cc2nc3ccccc3[nH]2)c(O)c(CN(Cc2nc3ccccc3[nH]2)Cc2nc3ccccc3[nH]2)c1 gave GI50 of 6.5 µM (inactive)

* * *

- Test system: SK-MEL-5
- Assay comment: NCI tumour cell line growth inhibition, 48 h
Active and inactive are the calls of the source. Rule as the data show it: active = GI50 up to about 1.1 µM and inactive = higher.
Measurement label: GI50

| Compound | GI50 |
| --- | --- |
| CC(C)(C)c1cc(/C=C(\C#N)C(=O)NCCO)cc(C(C)(C)C)c1O | 14.9 µM (inactive) |

Lab note: O=S1(=O)c2ccccc2N(c2ccccc2)c2nnnn21 gave GI50 of 34.4 µM (inactive)

* * *

- Tested on: NCI/ADR-RES
- Assay comment: NCI tumour cell line growth inhibition, 48 h
Activity calls are given as the source filed them. No stated cut-off is given here; in the data, active = GI50 up to about 1.1 µM and inactive = higher.
Entry note: the call must match one of class 1 for active, class 0 for inactive

These recorded examples may help you get a feel for the data.
| Molecule | Cat |
| --- | --- |
| CN(C)CCNC(=O)c1cc(-c2nccn2C)nc2ccccc12 | class 0 |
| CCOC(=O)C(=O)/C(=C/n1c(=S)[nH]c2ccc([N+](=O)[O-])cc21)C(=O)OCC | class 0 |
| C/C=C1/CN2CCC34C(=C(C(=O)OC)C1CC23)Nc1ccc(O)cc14 (stereo not given) | class 0 |
| COc1ccc2c(c1O)[C@@]13CCCC=C1[C@@H](C2)N(C)CC3 | class 0 |
| O=C1Nc2ccccc2/C1=N/NC(=S)NCc1ccccn1 | class 1 |
| COC(=O)C(C)(Cc1ccc2c(c1)nnn2C(C)=O)NC(C)=O (stereo not given) | class 0 |

[in] Please state the recorded outcome for this molecule: CCOC(=O)c1ccc(C(=O)/C(C#N)=C2\CCCN2C)[nH]1
[out] class 0

[in] Please state the recorded outcome for this molecule: O=C1C(=O)c2cc([N+](=O)[O-])ccc2-c2ccc([N+](=O)[O-])cc21
[out] class 1

[in] Please state the recorded outcome for this molecule: CC1SCc2nc3ccccc3n21 (stereo not given)
[out] class 0

[in] Please state the recorded outcome for this molecule: CCCCCCNC(=O)CCC(NC(=O)c1ccc(N(C)Cc2cnc3nc(N)nc(N)c3n2)cc1)C(=O)NCCCCCC (stereo not given)
[out] class 0
